target: recombinant homotrimeric HA A/Indonesia/5/05 H5N1 (Influenza A virus A/Indonesia/5/2005(H5N1)); assay: protein microarray, purified IgG, trimeric HA; details: remark: other sources report otherwise
assay_metric: Trimeric HA Binding: RLU (RLU)

{"columns": ["binder", "observed"],
 "data": [
  ["TCN-527 (5086_C06) (antibody, V domains shown) VH: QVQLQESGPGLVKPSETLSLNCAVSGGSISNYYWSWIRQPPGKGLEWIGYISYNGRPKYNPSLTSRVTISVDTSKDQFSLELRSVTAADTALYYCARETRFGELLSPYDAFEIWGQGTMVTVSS VL: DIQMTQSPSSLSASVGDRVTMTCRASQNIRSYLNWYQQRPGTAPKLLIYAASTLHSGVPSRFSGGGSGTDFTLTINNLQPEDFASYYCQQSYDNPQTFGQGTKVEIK", 29600],
  ["TCN-534 (5249_B02) (antibody, V domains shown) VH: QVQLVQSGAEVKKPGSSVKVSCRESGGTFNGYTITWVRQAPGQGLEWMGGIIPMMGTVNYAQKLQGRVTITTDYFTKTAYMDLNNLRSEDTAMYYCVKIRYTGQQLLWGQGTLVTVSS VL: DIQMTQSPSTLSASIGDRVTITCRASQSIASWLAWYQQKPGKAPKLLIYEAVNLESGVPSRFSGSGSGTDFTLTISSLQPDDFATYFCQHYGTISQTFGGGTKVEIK", 19500],
  ["TCN-540 (5060_F05) (antibody, V domains shown) VH: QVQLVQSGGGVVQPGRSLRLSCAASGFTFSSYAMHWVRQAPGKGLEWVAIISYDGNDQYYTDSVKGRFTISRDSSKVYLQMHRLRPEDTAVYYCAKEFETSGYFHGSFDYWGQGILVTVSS VL: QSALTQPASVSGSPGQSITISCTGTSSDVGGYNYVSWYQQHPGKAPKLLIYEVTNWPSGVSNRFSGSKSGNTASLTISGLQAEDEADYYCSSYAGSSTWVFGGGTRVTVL", 139],
  ["TCN-541 (5062_M11) (antibody, V domains shown) VH: QVQLQESGPGLVKPSETLSLTCTVSGGSINSYYWNWIRQPPGKGLEWIGYIYHSGSTNYNPSLKSRVTISVDTSKNQFSLQLSSVTAADTAVYYCARLRTDYGDPDSVYYYGMDVWGQGTTVTVSS VL: SYELTQPPSVSVSPGQTARITCSGDALPKQNAYWYQQKPGQAPVLLIYKDSERPSGIPERFSGSSSGTTVTLTISGVQAEDEADYYCQSADSSGTSWVFGGGTKLTVL", 160],
  ["TCN-546 (5089_L08) (antibody, V domains shown) VH: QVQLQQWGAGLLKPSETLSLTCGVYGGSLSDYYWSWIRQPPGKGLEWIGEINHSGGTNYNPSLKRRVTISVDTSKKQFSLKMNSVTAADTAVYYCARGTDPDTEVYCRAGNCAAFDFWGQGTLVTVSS VL: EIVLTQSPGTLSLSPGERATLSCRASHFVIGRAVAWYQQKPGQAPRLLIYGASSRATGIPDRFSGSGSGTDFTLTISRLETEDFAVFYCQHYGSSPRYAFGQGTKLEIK", 147]
]}
